From: the supplement of paper PMC12764529

Assay: folding stability dG unfold (combined trypsin and chymotrypsin); higher = more stable
metric: folding stability dG unfold (kcal/mol)
Return type: number; implicit unit kcal/mol.

(Q) // fetch folding stability dG unfold given entry SAGGSAGGSAGMIVIKNPETKEYYVIKFDGKEYVIELSEDELKELLEKLKGKDVEIKKLPSAGGSAGGSAGG [r11_57_TrROS_Hall]
(A) 1.96

(Q) Read off the recorded folding stability dG unfold for SAMIMIRVEYPNGKTWPIMIPLRTPDGDPTKEEVEEIAERIADEIAEEHGGDNVKIEIQVMPMPPEENPSAG [r14_378_TrROS]
(A) 1.82

(Q) Given SAGGAVEVKEIKILPPVLDPEGDPSNPLLRVEITTKITENTPEGKKILEKTKTYLVSPENLEEVLKKLSAGG [r13_149_JUSTAS] , respond with its folding stability dG unfold.
(A) 2.18

(Q) Report folding stability dG unfold, nothing else, for this sequence: SAGGMMTIEELKKLPPGAKVGDKIKIRNPATGETFTVTVLPDGRIKIEVDGKIYELPPGAEIVEIEKSAGGS [r8_162_TrROS_Hall]
(A) 2.17

(Q) Hello, please tell me recorded folding stability dG unfold for this one: SAGGSAGGSAGGMPPVEIVEIVNSPGKNPVIVLDPATGEPRLIEVPPDVTLTPEMARRESAGGSAGGSAGGS [r10_844_JUSTAS]
(A) 0.0501

(Q) Name the recorded folding stability dG unfold of the item SAGGSAGGSAGGSMPYVVVVKYPDGSTVTFPPGEDINVKVSPDKKGVEVVSVVPLSELLSAGGSAGGSAGGS [r4_122_JUSTAS] in your answer.
(A) -0.332

(Q) Indicate the recorded folding stability dG unfold value for this sequence: SAGGSAGGSAGGRLVVFEVKKDELNITGPGEARVVSVEELPGDRVRVVVEVPEGAVPGLASAGGSAGGSAGG [r17_48_TrMRF]
(A) 0.935

(Q) Name the recorded folding stability dG unfold of the sequence listed here: SAGGSAGGSAGGEIPIKIRPYDPKDGEPKDEHPIPFDTPNGNSLDEIAKQLPPDHFEVDISAGGSAGGSAGG [r17_339_TrROS]
(A) 0.875

(Q) Identify the reported folding stability dG unfold for the following entry. SAGEEIAKRLAEELKEKGYEVEVKVTVEYDEETGEVTITIEIKVKPKPAPPVKIEKKLEGMSEEEKKALSAG [r5_413_TrROS_Hall]
(A) 0.187

(Q) Given the sequence SAGGSKTVTLTVTVEVNGKTFTVTVTLTYDEETNKLTITVEISAKSEEERERARELVEKLLKELLSSAGGSA [r2_259_TrROS_Hall] , write its reported folding stability dG unfold.
(A) 4.79

(Q) Give folding stability dG unfold for SAGGSAGGSDTIVVTLPDGTKITYDKENNEVYVYNLKTKKKIKFPKNMSLEEVLKAIKKLKKPSAGGSAGGS [r12_832_TrROS_Hall]
(A) 2.71

(Q) Specify measured folding stability dG unfold for SAGGSAGRVRVELELEIVVDTPEEARALAEELARRFPSIVRVEVEVRRRPDGRLVVRVRLEVELPPSAGGSA [r15_726_TrROS_Hall] .
(A) 3.31

(Q) Report folding stability dG unfold, nothing else, for this sequence: SAGGTTTTLTFETEEEAREFAEELREKHPDVVLEVEIRRETRTVTVPGVGEVREVDRVVVTVTLTPASAGGS [r16_828_JUSTAS]
(A) 2.89

(Q) For the sequence SMVVIEFETKKPKEQAEKAVEKAKKEIPELEEVLEIEVEEFPDFLKVKIVLKGGKITPEDLEKLKEFLEKSA [r9_195_TrMRF] , give its measured folding stability dG unfold value.
(A) 2.63

(Q) // fetch folding stability dG unfold given entry SAGGMPEKVVVLRIRVTIRRDGEEEEIELEIRLPEEGQELTEEQLLALLRELLPPGYEIRRVEIEELSAGGS [r16_407_TrROS_Hall]
(A) 4.73

(Q) State its folding stability dG unfold for this sequence: EMTEEELREKLPELSPEELEELARKLAEELGIEEVEEVEVVSVKPDGTIEVKVKLKDGEELTIEIPLEELLS [r1_435_TrROS_Hall]
(A) 2.47

(Q) Write down folding stability dG unfold measured for item SAGGWWIITIEFPNPEQIKKILEEAGWKVDIERRPNGSVTIFFPPDDVDKIKKAFPGFEINIHPIPPNSAGG [r13_261_TrROS]
(A) 4.25

(Q) Quote folding stability dG unfold reported for SAKLAKELAEELAKEILPKFPNIKAVKVEVEPLGDYAIATIIWEKENGKPIISKAIIEKNKKILKVDISSAG [r14_719_TrMRF] please.
(A) 1.19

(Q) State its folding stability dG unfold: SAGGPKVIVTDPNGVKHEFENLSIPELLSSLPKNGTPILKIEIPLFNPELGGEEPLELEFIFPPELFSAGGS [r16_806_TrMRF]
(A) 0.107

(Q) Answer with the recorded folding stability dG unfold for the sequence listed here: SAGGSAMTEEEFETEFSDPNNSLSTKVKTTRYLEGDTPVVKTTYTTEDPNTGSTYTTEKVTVIPKKSAGGSA [r15_960_JUSTAS]
(A) -0.891

(Q) Supply recorded folding stability dG unfold for SAGGSAGGSAKKTLTVKPGQTVTVKNKKTGKTYTATVEKDKDGNLTVKLENGKTYTINLKDLSAGGSAGGSA [r18_169_TrROS_Hall] here.
(A) 1.8

(Q) Recall and state the measured folding stability dG unfold for SAGGSAGGPNIEIMSMFKHPNGTIVIFIRTPEGRYIVIKIPPPGNIKIVGVYPLPPGDPLLERLSAGGSAGG [r6_715_TrROS] .
(A) 3.06

(Q) Tell me folding stability dG unfold reported for SMKMSPEEKLKELAKELAEKLEEETGKKVKVRVTVEYNGKTFEIEIEEGETIEDIRNKFPGLKIKVEIEPSA [r9_513_TrROS_Hall]
(A) 1.08

(Q) Give me measured folding stability dG unfold, please, for this sequence: SAGGDKKKVKIHIFPPPGMPMDNFANYIQDQLGWDRNNIKVEPMDSPQEAERRAEKNGKPEIVIFFRSAGGS [r8_245_TrROS]
(A) 0.456

(Q) Consider the sequence SAGGSAGGSAGYPPVPPAVVQAVVDELPRLGYTPKAVVVGEGPDLPFVLVVADDKVLLVRGSAGGSAGGSAG [r3_395_TrMRF] . State its measured folding stability dG unfold.
(A) -0.379
